- Tested on: HEK-293T
- method: Multiplex assay against HEK293T
- Type: toxicity, cell-based
- particulars: human, 48 h, 1 µM, compound concentration 1 uM, replicate 2
Reported Population Membrane Permeable-Phenotype (%) values for the following compounds.
outcome-measure: Population Membrane Permeable-Phenotype (%)

compound="CN1C2CCC1CC(OC(c1ccc(F)cc1)c1ccc(F)cc1)C2.Cl (stereo unspecified)" numeric_result=15
compound=S=C(NCCCc1c[nH]cn1)NCCCN(Cc1ccc(Cl)c(Cl)c1)c1ccc(Br)cn1 numeric_result=33
compound=CCn1c(=O)c(-c2ccc(-c3cncs3)cc2Cl)cc2cnc(Nc3ccc(N4CCN(C)CC4)cc3)nc21 numeric_result=7
compound=Cl.Oc1ccc2c3c1O[C@H]1c4[nH]c5c(c4C[C@@]4(O)[C@@H](C2)N(CC2CC2)CC[C@]314)C[C@@]1(O)[C@H]2Cc3ccc(O)c4c3[C@@]1(CCN2CC1CC1)[C@H]5O4 numeric_result=10
compound=C=C1/C(=C\C=C2/CCC[C@]3(C)[C@@H]([C@H](C)/C=C/[C@H](C)C(C)C)CC[C@@H]23)C[C@@H](O)C[C@@H]1O numeric_result=4
compound=CCOc1cc(C(=O)N2CCC(N3CCN(C)CC3)CC2)ccc1Nc1ncc2c(n1)N(C1CCCC1)c1ccccc1C(=O)N2C numeric_result=0
compound=O=C1N/C(=N/c2ccccc2F)S/C1=C\c1ccc(C(=O)O)cc1 numeric_result=11
compound=O=C(Cc1ccc(-c2ccc(OCCN3CCOCC3)cc2)cn1)NCc1ccccc1 numeric_result=12
compound=Cl.O=c1c2cccn2c2ccccc2n1CCCN1CCC(c2ccc(Cl)cc2)CC1 numeric_result=3
compound=CCCS(=O)(=O)c1nc(NC2CC2)cc(-c2ccc3c(ccn3C3CC(C)(C)NC(C)(C)C3)c2)n1 numeric_result=12
compound=O=C1NC(=O)C(c2cnc3ccccn23)=C1c1cn2c3c(cc(F)cc13)CN(C(=O)N1CCCCC1)CC2 numeric_result=12
compound=Cc1ccc(C(=O)Nc2cccc(C(F)(F)F)c2)cc1Nc1nc(-c2cccnc2)nc2c1cnn2C numeric_result=8
compound=COc1cc(N2CCN(C)CC2)ccc1Nc1ncc2c(n1)N(C)c1ccccc1C(=O)N2C numeric_result=6
compound="CN1CCC(=C2c3ccccc3CC(=O)c3sccc32)CC1.O=C(O)/C=C/C(=O)O [KETOTIFEN FUMARATE]" numeric_result=10
compound=O=C(Nc1ccc(-c2ccnc(Nc3ccc(N4CCOCC4)cc3)n2)cc1)[C@@H]1CCCN1 numeric_result=4
compound=CCc1cccc(CC)c1NC(=O)c1nn(C)c2c1CCc1cnc(Nc3ccc(C(=O)NC4CCN(C)CC4)cc3OC(F)(F)F)nc1-2 numeric_result=2

====

- Test system: Fibroblast
- method: Multiplex assay against human fibroblast
- Type: toxicity, cell-based
- particulars: 48 h, 10 µM, compound concentration 10 uM, replicate 2
Reported Population Pyknosed Nuclei (%) values for the following compounds.
outcome-measure: Population Pyknosed Nuclei (%)

compound=Cl.O=c1c2cccn2c2ccccc2n1CCCN1CCC(c2ccc(Cl)cc2)CC1 outcome_measure="Population Pyknosed Nuclei (%)" numeric_result=19
compound=Cc1ccc(C(=O)Nc2cccc(C(F)(F)F)c2)cc1Nc1nc(-c2cccnc2)nc2c1cnn2C outcome_measure="Population Pyknosed Nuclei (%)" numeric_result=4
compound=O=C(Nc1ccc(-c2ccnc(Nc3ccc(N4CCOCC4)cc3)n2)cc1)[C@@H]1CCCN1 outcome_measure="Population Pyknosed Nuclei (%)" numeric_result=3
compound=S=C(NCCCc1c[nH]cn1)NCCCN(Cc1ccc(Cl)c(Cl)c1)c1ccc(Br)cn1 outcome_measure="Population Pyknosed Nuclei (%)" numeric_result=46
compound=CCc1cccc(CC)c1NC(=O)c1nn(C)c2c1CCc1cnc(Nc3ccc(C(=O)NC4CCN(C)CC4)cc3OC(F)(F)F)nc1-2 outcome_measure="Population Pyknosed Nuclei (%)" numeric_result=2
compound="CN1CCC(=C2c3ccccc3CC(=O)c3sccc32)CC1.O=C(O)/C=C/C(=O)O [KETOTIFEN FUMARATE]" outcome_measure="Population Pyknosed Nuclei (%)" numeric_result=1
compound=Cl.O=C(c1ccc(Nc2nccc(-c3cc4ccccc4s3)n2)cc1)N1CCC(N2CCCC2)CC1 outcome_measure="Population Pyknosed Nuclei (%)" numeric_result=4
compound=O=C(Cc1ccc(-c2ccc(OCCN3CCOCC3)cc2)cn1)NCc1ccccc1 outcome_measure="Population Pyknosed Nuclei (%)" numeric_result=2
